Below, each entry is listed with its recorded %Inh.
Test system: TEC;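 further: KINOMEscan kinase panel screen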
Settings: concentration: 1 μM, replicates: in singlicate; n = 1
Express your answer in %, writing the number without its unit.

compound: CCS(=O)(=O)c1ccc(OC)c(Nc2nccc(-c3c(-c4cccc(NC(=O)c5c(F)cccc5F)c4)nn4ncccc34)n2)c1
endpoint_unit: %
%Inh: 4
--
compound: COc1cc(Nc2nccc(-c3c(-c4cccc(NC(=O)c5c(F)cccc5F)c4)nn4ncccc34)n2)cc(OC)c1OC
endpoint_unit: %
%Inh: 95.2
--
compound: NCCCC(NC(=O)c1cc(Br)c(-c2ccnc3[nH]ccc23)s1)c1ccccc1.O=C(O)C(F)(F)F.O=C(O)C(F)(F)F (centres unmarked)
endpoint_unit: %
%Inh: 0

Short answer for Nc1ncc(-c2cccnc2)c2scc(-c3ccc4c(c3)CCN4C(=O)Cc3ccccc3)c12 : %Inh was 17

Short answer for O=C(Nc1cccc(-c2nn3ccccc3c2-c2ccnc(Nc3cccc(C(F)(F)F)c3)n2)c1)c1c(F)cccc1F : %Inh was 83

Short answer for O=c1[nH]cc(-c2ccc(N3CCOCC3)cc2)c2sc(-c3cn[nH]c3)cc12 : %Inh was 0
